molecular target: Fuc(a1-2)[Gal(a1-3)]Gal(b1-4)GlcNAc(b1-3)[Fuc(a1-2)[Gal(a1-3)]Gal(b1-4)GlcNAc(b1-6)]GalNAc; test: glycan array binding signal (z-score within array); higher = stronger binding; conditions: glycan notation: IUPAC condensed, linker removed
Many of the other results were omitted from the sample, so the strongest signals are more common in it than they were.
Assign glycan array binding signal (z-score) to each entry below.
// return just the number, without any unit appended

Q. // returns reported glycan array binding signal (z-score) for input SSR1 (Sclerotium rolfsii), A0A0M3KL30 (protein) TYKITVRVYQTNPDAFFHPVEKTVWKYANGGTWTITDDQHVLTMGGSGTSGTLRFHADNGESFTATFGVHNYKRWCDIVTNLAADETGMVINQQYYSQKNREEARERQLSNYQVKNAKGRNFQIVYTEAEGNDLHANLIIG
A. -0.325

Q. Please answer likewise for Epa7 (Candida glabrata), Q6DTM6_CANGB (protein) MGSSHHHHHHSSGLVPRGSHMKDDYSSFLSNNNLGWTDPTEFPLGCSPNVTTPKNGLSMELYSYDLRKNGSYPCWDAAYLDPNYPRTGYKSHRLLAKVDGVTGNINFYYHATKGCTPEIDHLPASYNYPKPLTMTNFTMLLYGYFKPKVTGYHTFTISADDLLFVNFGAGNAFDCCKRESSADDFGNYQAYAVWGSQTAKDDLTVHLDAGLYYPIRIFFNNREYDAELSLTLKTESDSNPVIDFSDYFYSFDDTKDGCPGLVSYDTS
A. -0.208

Q. Please answer likewise for Als3-41 (Candida albicans) (protein) KTITGVFNSFNSLTWSNAATYNYKGPGTPTWNAVLGWSLDGTSASPGDTFTLNMPCVFKFTTSQTSVDLTAHGVKYATCQFQAGEEFMTFSTLTCTVSNTLTPSIKALGTVTLPLAFNVGGTGSSVDLEDSKCFTAGTNTVTFNDGGKKISINVDFERSNVDPKGYLTDSRVIPSLNKVSTLFVAPQCANGYTSGTMGFANTYGDVQIDCSNIHVGITKGLNDWNYPVSSESFSYTKTCSSNGIFITYKNVPAGYRPFVDAYISATDVNSYTLSYANEYTCAGGYWQRAPFTLRWTGYRNSDAGSNGIVIVATTRTVTDSTTAVTTLPFDPNRDKTKTIEILKPIPTTTITTSYVGVTTSYLTKTAPIGETATVIVD
A. 1.91
